- study-target: Cytochrome P450 3A4 (Homo sapiens)
- Sequence (P08684 whole entry): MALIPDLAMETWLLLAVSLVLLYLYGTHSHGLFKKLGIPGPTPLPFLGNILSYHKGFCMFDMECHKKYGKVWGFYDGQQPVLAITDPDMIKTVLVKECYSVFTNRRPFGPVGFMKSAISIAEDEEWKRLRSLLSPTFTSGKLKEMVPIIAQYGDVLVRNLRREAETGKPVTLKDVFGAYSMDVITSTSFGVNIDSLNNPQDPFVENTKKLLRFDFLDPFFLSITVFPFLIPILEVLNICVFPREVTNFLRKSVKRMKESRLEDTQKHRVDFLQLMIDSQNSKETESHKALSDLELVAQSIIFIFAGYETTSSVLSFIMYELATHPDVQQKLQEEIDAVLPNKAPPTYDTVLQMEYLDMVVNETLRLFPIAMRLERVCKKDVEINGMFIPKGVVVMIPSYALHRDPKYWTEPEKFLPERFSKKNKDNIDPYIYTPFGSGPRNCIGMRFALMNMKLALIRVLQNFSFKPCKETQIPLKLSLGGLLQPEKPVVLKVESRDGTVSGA
pIC50: −log10 of the molar value.
Property: pIC50; scope: individual compounds

// known answers, use as guide
Test system Cytochrome P450 3A4 (Homo sapiens); read-out pIC50; what value for Cc1ncc(C(=O)Nc2ccc(-c3cccc(S(=O)(=O)C4CC4)c3)cn2)cn1 ?
< 4.52

Short answer please: pIC50, Cytochrome P450 3A4 (Homo sapiens), entry Cc1ncc(C(=O)Nc2ccc(-c3cccc(OC4CC4)c3)cn2)cn1
< 4.52

Please examine the following record next.
Recall the recorded pIC50 for Cc1ncc(C(=O)Nc2ccc(-c3ccsc3)cn2)cn1 with Cytochrome P450 3A4 (Homo sapiens) and state it.
< 4.52

---

pIC50: −log10 of the molar value.
As an illustration, consider measured pIC50 for compounds on Cytochrome P450 2D6 (Homo sapiens).
Sequence (P10635 whole entry): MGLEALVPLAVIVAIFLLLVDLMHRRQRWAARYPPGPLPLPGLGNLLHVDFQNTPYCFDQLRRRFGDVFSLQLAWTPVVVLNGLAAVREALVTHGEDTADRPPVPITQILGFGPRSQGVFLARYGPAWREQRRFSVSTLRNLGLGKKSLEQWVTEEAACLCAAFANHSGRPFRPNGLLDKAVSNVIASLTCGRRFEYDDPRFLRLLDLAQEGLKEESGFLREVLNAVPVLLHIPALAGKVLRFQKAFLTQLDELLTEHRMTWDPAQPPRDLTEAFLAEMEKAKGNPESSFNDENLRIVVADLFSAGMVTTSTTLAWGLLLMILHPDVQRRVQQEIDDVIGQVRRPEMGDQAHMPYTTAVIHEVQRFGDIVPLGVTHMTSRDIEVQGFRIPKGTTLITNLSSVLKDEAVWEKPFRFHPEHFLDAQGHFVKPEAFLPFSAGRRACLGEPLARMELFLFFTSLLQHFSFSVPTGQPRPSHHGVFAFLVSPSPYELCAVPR

Item: Cc1ncc(C(=O)Nc2ccc(-c3cccc(S(=O)(=O)C4CC4)c3)cn2)cn1 Test system: Cytochrome P450 2D6 (Homo sapiens) Read-out: pIC50 Value: ?
< 4.52

Value wanted: pIC50 (Cytochrome P450 2D6 (Homo sapiens)) of entry Cc1ncc(C(=O)Nc2ccc(-c3ccsc3)cn2)cn1
< 4.52

Now for another entry.
I'm curious: which pIC50 was measured for Cc1ncc(C(=O)Nc2ccc(-c3cccc(OC4CC4)c3)cn2)cn1 tested on Cytochrome P450 2D6 (Homo sapiens)?
< 4.52

---

The following molecules are listed with their measured IC50 values.
- study-target: Cytochrome P450 1A2 (Homo sapiens, UniProt P05177)
- Sequence (P05177 whole entry): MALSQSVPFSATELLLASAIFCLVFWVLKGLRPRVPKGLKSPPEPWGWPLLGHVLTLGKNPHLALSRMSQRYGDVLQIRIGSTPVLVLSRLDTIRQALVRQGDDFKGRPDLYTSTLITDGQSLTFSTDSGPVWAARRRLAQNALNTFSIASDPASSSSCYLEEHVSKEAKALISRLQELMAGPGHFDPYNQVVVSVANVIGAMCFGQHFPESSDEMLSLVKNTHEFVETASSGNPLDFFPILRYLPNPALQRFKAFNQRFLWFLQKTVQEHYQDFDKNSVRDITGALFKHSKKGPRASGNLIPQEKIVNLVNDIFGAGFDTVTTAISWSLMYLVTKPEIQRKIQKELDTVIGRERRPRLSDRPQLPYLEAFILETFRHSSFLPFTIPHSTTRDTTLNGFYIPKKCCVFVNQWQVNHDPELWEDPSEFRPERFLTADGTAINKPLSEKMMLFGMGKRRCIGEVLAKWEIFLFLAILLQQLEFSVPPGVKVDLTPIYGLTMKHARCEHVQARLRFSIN

Study these solved cases before continuing.
Looking for the measured IC50 of Cc1ncc(C(=O)Nc2ccc(-c3ccsc3)cn2)cn1 , can you help?
> 30 µM

I am curious: what IC50 value has been reported for Cc1ncc(C(=O)Nc2ccc(-c3cccc(OC4CC4)c3)cn2)cn1 ?
> 30 µM

Next:
Sample Cc1ncc(C(=O)Nc2ccc(-c3cccc(S(=O)(=O)C4CC4)c3)cn2)cn1 — what was its IC50?
> 30 µM

---

- System: SNU-16
- experimental-details: Antitumor activity against human SNU16 cells xenografted in nude BALB/c mouse assessed as tumor growth inhibition relative to control
- Assay type: functional
Tick true (1) if TGI is 70% or greater. Tick false (0) if TGI is less than 70%.

Does the reported TGI for Cc1ncc(C(=O)Nc2ccc(-c3cccc(NC4CC4)c3)cn2)cn1 fall at or above the 70% mark?
false (0)

Is it the case that Cc1ncc(C(=O)Nc2ccc(-c3cccc(OC4CC4)c3)cn2)cn1 has TGI reaching or exceeding 70%?
true (1)

Decide: TGI of Cc1ncc(C(=O)Nc2ccc(-c3cccc(S(=O)(=O)C4CC4)c3)cn2)cn1 >= 70%?
true (1)

Answer whether TGI of Cc1ncc(C(=O)Nc2ccc(-c3ccsc3)cn2)cn1 is greater than or equal to 70%.
true (1)

Further cases:
Entry Cc1ncc(C(=O)Nc2ccc(-c3cccc(C4CC4)c3)cn2)cn1 : is its TGI no less than 70%?
true (1)

Given O=C(Nc1ccc(-c2cccc(Cl)c2)cn1)c1cncnc1 , state whether its TGI is at least 70%.
false (0)

Kindly determine if TGI recorded for O=C(Nc1ccc(-c2cccc(C3CC3)c2)cn1)c1cncnc1 is above or exactly 70%.
true (1)

---

Below, each entry is listed with its recorded Drug recovery.
- experimental-details: Drug recovery in plasma (unknown origin)
- Format: ADME, cell-free
Express it in %; write the number only.

# count of solved cases: 3
Which Drug recovery is listed for Cc1ncc(C(=O)Nc2ccc(-c3ccsc3)cn2)cn1 ?
93.56

For the molecule Cc1ncc(C(=O)Nc2ccc(-c3cccc(OC4CC4)c3)cn2)cn1 , what Drug recovery is on record?
79.64

Fill in the blank: the reported Drug recovery of CC(=O)CC(c1ccccc1)c1c(O)c2ccccc2oc1=O (centres undefined) is ____.
98.63

Let us move to another entry and its Drug recovery.
Param item = Cc1ncc(C(=O)Nc2ccc(-c3cccc(S(=O)(=O)C4CC4)c3)cn2)cn1 ; retrieve measured Drug recovery.
87.2

---

- experimental-details: Half life in rat liver microsomes
- Format: ADME, microsome
We begin with a simple list: items and their reported half-life.
Write the number in min without appending the unit.

Completed entries (count: 2):
Reported half-life, compound Cc1ncc(C(=O)Nc2ccc(-c3cccc(S(=O)(=O)C4CC4)c3)cn2)cn1 : ____
79.6

Can you look up the measured half-life of Cc1ncc(C(=O)Nc2ccc(-c3ccsc3)cn2)cn1 for me?
25.9

Next compound, please.
What does the data say about its half-life? Entry: Cc1ncc(C(=O)Nc2ccc(-c3cccc(OC4CC4)c3)cn2)cn1
10.9
